# Tested on: HOP-62
# assay-details: NCI tumour cell line growth inhibition, 48 h
Active and inactive are the calls of the source. Cut-off read from the data, not from the text of the source: active = GI50 up to about 1.1 µM and inactive = higher.
Could you please pick one outcome from this set? active, inactive

1) O=c1[nH]cnc2c1ncn2[C@@H]1C[C@H]1CO	inactive

Check the results log: what was the call for [N-]=[N+]=C1C(=O)C2CC3CC1CC2C3 (stereo unspecified) ?
inactive

Recorded test outcome, item O=CC1C(=O)Nc2nc3ccccc3n2C1c1ccccc1 (stereo unspecified)
inactive

GET /call?item= C=CCN1C(=O)/C(=C/c2ccccc2)N=C1SC1OC(COC(=O)c2ccccc2)C(OC(=O)c2ccccc2)C1OC(=O)c1ccccc1 (stereo unspecified) returns the recorded outcome of this test.
inactive

Any idea what this test logged for CCCCCNC(=O)CCCCCCCCCCCNC(=O)CCCCCCCCCCN1C=CC(=CC=C2C=CC(=O)C=C2)C=C1 ?
inactive

Hello, I am checking results. What call was entered for Clc1cccc2[nH]ncc12 ?
inactive
